# assay_details: gradient 5% acetonitrile 3 min, to 50% in 2 min, to 85% in 15 min, held 3 min, 100 µL/min
# conditions_used: column: Zorbax Extend-C18 2.1 x 50 mm; eluents: water / acetonitrile, 0.1% formic acid
Please use label 1 whenever RP-LC retention time is not below 800 s, and label 0 whenever it is.

Answer whether RP-LC retention time of O=C(NCCc1ccccc1)Nc1cccc(-c2nnc3n2CCCC3)c1 is greater than or equal to 800 s.
label 0

API: above_or_equal(metric=RP-LC retention time, cutoff=800 s) for item Fc1ccccc1N1CCN(Cc2nc(-c3ccc(N4CCSCC4)nc3)no2)CC1
label 1

Is it the case that Cc1cc(N(C)C)n2nc(CN3CCCC(C)C3)nc2n1 (stereo not given) has RP-LC retention time reaching or exceeding 800 s?
label 0

Could you please find out whether O=C(Nc1cnc(-c2ccccc2)nc1)c1ccc(F)c(F)c1 has RP-LC retention time that meets 800 s or exceeds it?
label 1

Hi team, for COc1ccc(NC(=O)c2c(O)c3cccnc3n(-c3cccc(F)c3)c2=O)cc1 , is the recorded RP-LC retention time at or above 800 s?
label 1

Identify whether the reported RP-LC retention time of the following compound is 800 s or greater: CCc1nc2c(c(=O)n1CC(=O)NCc1ccc(C)cc1)CN(Cc1ccccc1)CC2
label 0

Could you tell me if the measured RP-LC retention time of COC(=O)c1ccc(COc2cc(O)c3c(=O)cc(-c4ccccc4)oc3c2)cc1 reaches 800 s or more?
label 1

Hello, I need to know if Cc1ccc(C)c(-c2coc(-c3ccc(NC(=O)NCc4ccc(F)cc4)cc3)n2)c1 has measured RP-LC retention time not below 800 s. Thanks!
label 1

Could you please find out whether CCCCC(=O)N1CCN(C(=O)c2cc3cc(Br)ccc3[nH]2)CC1 has RP-LC retention time that meets 800 s or exceeds it?
label 1

Would you say O=C(CCc1nnc2c3cc(-c4ccccc4)nn3ccn12)N1CCN(C2CCCCC2)CC1 shows RP-LC retention time at minimum 800 s?
label 0

Could you tell me if the measured RP-LC retention time of O=C(CCSc1ccccc1)NCC(O)c1cccc2ccccc12 (stereo not given) reaches 800 s or more?
label 1

Given CNC(=O)C1CCCN(c2nc3ncn(CC(=O)Nc4ccccc4)c(=O)c3s2)C1 (stereo not given) , state whether its RP-LC retention time is at least 800 s.
label 0

Is RP-LC retention time at least 800 s? Consider Cc1occc1C(=O)N1CCc2nn(CC3CC3)c(=O)n2CC1
label 0

Hi, just wondering whether CCN1CCCn2cc(S(=O)(=O)Nc3cccc(C)c3)cc2C1=O shows RP-LC retention time of 800 s or higher.
label 0

Confirm if RP-LC retention time reported for the compound O=C(NC1CCCCC1)C1CCCN(c2ccncc2)C1 (stereo not given) is 800 s or above.
label 0

Decide: is the reported value of RP-LC retention time for CN(Cc1ccccc1)C(=O)c1cc2n(n1)CC(C)(C(=O)NC1CCCCCC1)N(C)C2=O (stereo not given) equal to or greater than 800 s?
label 1

Exam item: decide whether the reported RP-LC retention time for O=C(CCc1ccc2c(c1)CN(C(=O)C1CC1)CCO2)NC1CCS(=O)(=O)C1 (stereo not given) is at least 800 s.
label 0

Would you say O=S(=O)(Cc1cccc(Cl)c1)N1CCc2nc(-c3ccc(Cl)cc3)ncc2C1 shows RP-LC retention time at minimum 800 s?
label 1
